test: Neurotoxicity in po dosed STD-dd mouse assessed as muscle incoordination administered via gavage by rotarod test; format: toxicity, organism-based, Muscle tissue; conditions: in vivo
So basically: is TD50 under 100 mg/kg? Then Criterion met. Not under? Then Criterion not met.

Input line: Is the reported TD50 for CN1CCN(S(=O)(=O)Cc2noc3ccc(F)cc23)CC1 strictly below 100 mg/kg?
Output line: Criterion not met

Input line: And for CC(C)NS(=O)(=O)Cc1noc2ccc(Br)cc12 ?
Output line: Criterion met

Input line: Would you kindly repeat that for CC(C)NS(=O)(=O)Cc1noc2ccccc12 ?
Output line: Criterion not met

Input line: For CN1CCN(S(=O)(=O)Cc2noc3ccc(Br)cc23)CC1 then?
Output line: Criterion met

Input line: Another: CCNS(=O)(=O)Cc1noc2ccccc12
Output line: Criterion not met

Input line: Let us now turn to CNS(=O)(=O)Cc1noc2ccc(Cl)cc12
Output line: Criterion met

Input line: Same for NS(=O)(=O)Cc1noc2ccc(Cl)cc12
Output line: Criterion met

Input line: Record: CCNS(=O)(=O)Cc1noc2ccc(F)cc12
Output line: Criterion not met

Input line: Please do the same for CN(C)S(=O)(=O)Cc1noc2ccc(F)cc12 as well.
Output line: Criterion not met

Input line: Now the same for NS(=O)(=O)Cc1noc2ccc(Br)cc12
Output line: Criterion met

Input line: How about this compound: CC(C)NS(=O)(=O)Cc1noc2ccc(F)cc12
Output line: Criterion not met

Input line: CN(C)S(=O)(=O)Cc1noc2ccc(Cl)cc12 ?
Output line: Criterion not met
